In this section, each of the compounds is paired with its reported Emax.
test.system: M1 muscarinic receptor (Homo sapiens)
Construct: expressed in transfected cells; host or cells: CHO (M1-CHO)
Sequence (P11229 1-460): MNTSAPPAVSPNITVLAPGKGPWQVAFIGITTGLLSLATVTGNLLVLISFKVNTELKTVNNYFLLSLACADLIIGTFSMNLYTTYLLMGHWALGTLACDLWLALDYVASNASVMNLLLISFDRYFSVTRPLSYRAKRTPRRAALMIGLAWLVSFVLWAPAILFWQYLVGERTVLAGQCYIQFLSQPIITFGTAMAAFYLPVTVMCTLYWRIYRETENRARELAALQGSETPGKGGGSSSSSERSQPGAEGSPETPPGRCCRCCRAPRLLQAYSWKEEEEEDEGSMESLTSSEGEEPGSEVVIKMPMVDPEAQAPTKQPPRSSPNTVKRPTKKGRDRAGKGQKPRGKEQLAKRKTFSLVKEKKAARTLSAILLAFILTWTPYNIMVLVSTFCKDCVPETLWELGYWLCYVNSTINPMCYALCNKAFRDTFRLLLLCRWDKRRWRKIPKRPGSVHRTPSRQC
experiment.notes: Functional mobilization of intracellular calcium (FLIPR) in M1-CHO cells
Format: cell-based
condition.label: M1 receptor, calcium mobilization; read-out: M1 Efficacy

Check out these entries, answers already filled in.
CC#CCOC(=O)N1CCC(N2CCC3(CC2)CN(C(=O)N(C)C)c2ccc(F)cc23)CC1 ... > 85%
CCCC1CCC(N2CCC3(CC2)CNc2ccc(Cl)cc23)CC1 (stereo not shown) ... < 65%
CCCOC(=O)N1C2CCC1CC(N1CCC3(CC1)CN(C(=O)O[C@@H]1CCOC1)c1ccc(F)cc13)C2 (stereo partly shown) ... 65 to 85%
CC(C)OC(=O)N1C2CCC1CC(N1CCC3(CC1)CN(C(=O)C1CC1)c1ccc(F)cc13)C2 (stereo not shown) ... < 65%
C#CCOC(=O)N1CCC(CN2CCC3(CC2)CN(C(C)=O)c2ccc(F)cc23)CC1 ... < 65%

Inquiry: Value lookup for Emax; key = `CCOC(=O)N1CCC(N2CCC3(CC2)CN(C(=O)c2ccc(C)cc2)c2ccc(F)cc23)CC1`
Reply text: < 65%

Inquiry: Value lookup for Emax; key = `COCCOC(=O)N1CCC(N2CCC3(CC2)CN(C(=O)N(C)C)c2ccc(F)cc23)CC1`
Reply text: < 65%

Inquiry: Value lookup for Emax; key = CC(=O)NC1CC2(CCN(C[C@H]3C[C@H]4CC[C@H]3C4)CC2)c2ccccc21 (stereo partly shown)
Reply text: > 85%

Inquiry: Value lookup for Emax; key = Cc1ccc2c(c1)C1(CCN(CC3CCC4CCC3C4)CC1)CN2 (stereo not shown)
Reply text: < 65%

Inquiry: Value lookup for Emax; key = `CCOC(=O)N1CCC(N2CCC3(CC2)CN(C(=O)OC(C)C)c2ccc(F)cc23)CC1`
Reply text: > 85%

Inquiry: Value lookup for Emax; key = CC(=O)N1CC2(CCN(C3CCCCC3C)CC2)c2cc(F)ccc21 (stereo not shown)
Reply text: > 85%

----------
In this section, each of the compounds is paired with its reported Emax.
test.system: M1 muscarinic receptor (Homo sapiens, UniProt P11229)
Construct: expressed in transfected cells; host or cells: CHO (M1-CHO)
Sequence (P11229 1-460): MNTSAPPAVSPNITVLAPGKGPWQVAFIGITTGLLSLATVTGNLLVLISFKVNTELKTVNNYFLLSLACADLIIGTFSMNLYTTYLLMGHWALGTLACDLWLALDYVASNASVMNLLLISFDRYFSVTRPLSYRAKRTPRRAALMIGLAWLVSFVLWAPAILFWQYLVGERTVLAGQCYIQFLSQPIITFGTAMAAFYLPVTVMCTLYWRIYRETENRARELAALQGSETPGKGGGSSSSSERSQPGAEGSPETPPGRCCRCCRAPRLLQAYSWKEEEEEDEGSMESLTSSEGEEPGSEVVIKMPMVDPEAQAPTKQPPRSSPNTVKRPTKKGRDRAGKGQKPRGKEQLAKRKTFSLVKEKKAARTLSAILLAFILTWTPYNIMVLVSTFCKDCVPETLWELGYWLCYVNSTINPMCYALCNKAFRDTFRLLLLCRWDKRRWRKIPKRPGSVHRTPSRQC
experiment.notes: Functional mobilization of intracellular calcium (FLIPR) in M1-CHO cells
Type: cell-based
condition.label: Table 4; 100% efficacy is the maximum response obtained with the Carbachol control

Check out these entries, answers already filled in.
CC(=O)NC1CCC2(CCN(CCC3CCN(C(C)=O)CC3)CC2)c2ccccc21 (centres unmarked) [compound 833] ... 25 to 100%
Cc1ccc2c(c1)C1(CCN(C3CC4CCC3C4)CC1)CN2C(=O)NC(C)C (centres unmarked) [compound 667] ... < 25%
CN(C)C(=O)N1CC2(CCN(C3CCN(c4cnccn4)CC3)CC2)c2cc(F)ccc21 [compound 895] ... 25 to 100%
O=C1CC2(CCN(C3CCCCC3)CC2)c2cc(Cl)ccc21 [compound 715] ... 25 to 100%
CC(CF)OC(=O)N1CCC(N2CCC3(CC2)CN(C(=O)N(C)C)c2ccc(F)cc23)CC1 (centres unmarked) [compound 987] ... 25 to 100%

Inquiry: Value lookup for Emax; key = CCOC(=O)N1CCC(N2CCC3(CC2)CN(c2ncccn2)c2ccc(F)cc23)CC1 [compound 567]
Reply text: 25 to 100%

Inquiry: Value lookup for Emax; key = CC(=O)N[C@@H]1CCC2(CCN(CC3CCCCC3)CC2)c2ccccc21 [compound 882]
Reply text: < 25%

Inquiry: Value lookup for Emax; key = OC1CC2(CCN([C@@H]3C[C@H]4CC[C@@H]3C4)CC2)c2ccccc21 (some centres unmarked) [compound 536]
Reply text: 25 to 100%

----------
test.system: M1 muscarinic receptor (Homo sapiens, UniProt P11229)
Construct: expressed in transfected cells; host or cells: CHO (M1-CHO)
experiment.notes: Functional mobilization of intracellular calcium (FLIPR) in M1-CHO cells
Assay type: cell-based
condition.label: M1 receptor, calcium mobilization; read-out: M1 Efficacy
measurement.name: Emax

Check out these entries, answers already filled in.
CCCOC(=O)N1CCC(CN2CCC3(CC2)C[C@H](NC(C)=O)c2ccccc23)CC1 ... 65 to 85%
CC(C)OC(=O)N1C2CCC1CC(N1CCC3(CC1)CN(S(C)(=O)=O)c1ccc(F)cc13)C2 (centres unmarked) ... 65 to 85%
CCOC(=O)N1CCC(N2CCC3(CC2)CN(C(C)=O)c2ccc(C)cc23)CC1 ... 65 to 85%

Inquiry: Value lookup for Emax; key = CCNC(=O)N1CC2(CCN(C3CC4CCC(C3)N4C(=O)OCC)CC2)c2cc(F)ccc21 (centres unmarked)
Reply text: < 65%

Inquiry: Value lookup for Emax; key = O=C(O[C@H]1CCOC1)N1C2CCC1CC(N1CCC3(CC1)COc1ccc(F)cc13)C2 (some centres unmarked)
Reply text: < 65%

----------
test.system: M4 muscarinic receptor (Homo sapiens)
Construct: expressed in transfected cells; host or cells: CHO (M4-CHO)
experiment.notes: Functional mobilization of intracellular calcium (FLIPR) in M4-CHO cells
Assay type: cell-based
condition.label: M4-CHO cells, calcium mobilization (FLIPR)
pEC50: −log10 of the molar value.
In this section, each of the molecules is paired with its reported pEC50.

Check out these entries, answers already filled in.
CC(=O)N1CC2(CCN(C3CCN(C(=O)OC(C)C)CC3)CC2)c2cc(C)ccc21 [compound 380] ... 6.00 to 7.00
C/C=C\c1ccc2c(c1)C1(CCN(C3CCN(C(=O)OCC)CC3)CC1)CN2C(C)=O [compound 407] ... < 6.00
CCCOC(=O)N1C2CCC1CC(N1CCC3(CC1)CN(C(=O)C1CC1)c1ccc(F)cc13)C2 (stereo not shown) [compound 389] ... < 6.00

Continue with the molecule presented below.
Inquiry: Value lookup for pEC50; key = CCOC(=O)N1CCC(N2CCC3(CC2)CN(C(=O)O[C@H]2CCOC2)c2ccc(F)cc23)CC1 [compound 428]
Reply text: < 6.00

----------
In this section, each of the compounds is paired with its reported pEC50.
test.system: M4 muscarinic receptor (Homo sapiens, UniProt P08173)
Construct: expressed in transfected cells; host or cells: CHO (M4-CHO)
Sequence (P08173 whole entry): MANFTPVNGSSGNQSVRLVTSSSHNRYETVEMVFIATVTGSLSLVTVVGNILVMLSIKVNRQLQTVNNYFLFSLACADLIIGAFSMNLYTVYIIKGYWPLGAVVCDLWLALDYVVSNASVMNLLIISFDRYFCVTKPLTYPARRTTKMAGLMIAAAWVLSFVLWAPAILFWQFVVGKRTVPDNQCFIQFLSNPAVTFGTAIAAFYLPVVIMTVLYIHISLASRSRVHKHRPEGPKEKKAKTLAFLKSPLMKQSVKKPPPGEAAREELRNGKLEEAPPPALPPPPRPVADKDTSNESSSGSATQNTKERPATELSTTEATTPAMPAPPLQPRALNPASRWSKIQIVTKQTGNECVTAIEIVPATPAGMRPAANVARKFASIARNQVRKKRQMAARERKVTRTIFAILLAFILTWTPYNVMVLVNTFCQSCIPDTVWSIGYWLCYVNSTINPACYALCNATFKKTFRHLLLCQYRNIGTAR
experiment.notes: Functional mobilization of intracellular calcium (FLIPR) in M4-CHO cells
Assay type: cell-based
condition.label: M4-CHO cells, calcium mobilization (FLIPR)
pEC50: −log10 of the molar value.

Check out these entries, answers already filled in.
CCCOC(=O)N1C2CCC1CC(N1CCC3(CC1)CN(C(=O)OC)c1ccc(F)cc13)C2 (centres unmarked) ... 6.00 to 7.00
CCNC(=O)N1CC2(CCN(C3CC4CCC3C4)CC2)c2cc(C)ccc21 (centres unmarked) ... < 6.00
CCOC(=O)N1CCC(N2CCC3(CC2)CN(C(=O)c2cccc(F)c2)c2ccc(F)cc23)CC1 ... 6.00 to 7.00

Inquiry: Return pEC50 measured with M4 muscarinic receptor (Homo sapiens, UniProt P08173) given this compound: `CC(=O)N1CC2(CCN(CC3CCN(C(=O)O[C@@H]4CCOC4)CC3)CC2)c2cc(C)ccc21`
Reply text: < 6.00

Inquiry: Return pEC50 measured with M4 muscarinic receptor (Homo sapiens, UniProt P08173) given this compound: O=C(C1CC1)N1CC2(CCN(C3CC4CCC(C3)N4C(=O)OC3CCC3)CC2)c2cc(F)ccc21 (centres unmarked)
Reply text: 6.00 to 7.00

Inquiry: Return pEC50 measured with M4 muscarinic receptor (Homo sapiens, UniProt P08173) given this compound: `CC(=O)N1CC2(CCN(C3CCN(C(=O)O[C@H]4CCOC4)CC3)CC2)c2cc(C)ccc21`
Reply text: < 6.00

Inquiry: Return pEC50 measured with M4 muscarinic receptor (Homo sapiens, UniProt P08173) given this compound: `CCOC(=O)N1CCC(N2CCC3(CC2)C[C@@H](NC(C)=O)c2ccccc23)CC1`
Reply text: < 6.00

Inquiry: Return pEC50 measured with M4 muscarinic receptor (Homo sapiens, UniProt P08173) given this compound: CCOC(=O)N1C2CCC1CC(N1CCC3(CC1)CN(C(=O)C(C)C)c1ccc(F)cc13)C2 (centres unmarked)
Reply text: < 6.00

These data points were gathered from patent US7786141B2.
